- Test system: A2780
- assayDetails: Cytotoxicity against human A2780 cells assessed as growth inhibition measured after 72 hrs by SRB assay
- Type: functional
Would you mind telling me the reported GI50 of each entry?
Answers are plain numbers, in µM.

In: Complete the entry with GI50 for N#C/C(=C\c1ccc(OCC(O)CN2CCCC2)cc1)c1ccc(Cl)c(Cl)c1 (racemic)
Out: 2.7

In: Complete the entry with GI50 for N#C/C(=C\c1ccc(OCC(O)CNC23CC4CC(CC(C4)C2)C3)cc1)c1ccc(Cl)c(Cl)c1 (racemic)
Out: 1.7

In: Complete the entry with GI50 for N#C/C(=C\c1ccc(OCC(O)CN2CCCCC2)cc1)c1ccc(Cl)c(Cl)c1 (racemic)
Out: 2.7

In: Complete the entry with GI50 for N#C/C(=C\c1ccc(OCC(O)CN2CCC(c3ccccc3)CC2)cc1)c1ccc(Cl)c(Cl)c1 (racemic)
Out: 2.7

In: Complete the entry with GI50 for COc1ccc(NCC(O)COc2ccc(/C=C(\C#N)c3ccc(Cl)c(Cl)c3)cc2)cc1 (racemic)
Out: 17

# batch size: 3; output GI50 per entry
1. N#C/C(=C\c1ccc(OCC(O)CN2CCN(c3ccc(Cl)cc3)CC2)cc1)c1ccc(Cl)c(Cl)c1 (racemic)
2. CC(=O)N1CCN(CC(O)COc2ccc(/C=C(\C#N)c3ccc(Cl)c(Cl)c3)cc2)CC1 (racemic)
3. Cc1ccc(N2CCN(CC(O)COc3ccc(/C=C(\C#N)c4ccc(Cl)c(Cl)c4)cc3)CC2)cc1 (racemic)

Out:
[15, 6.9, 3]
